Target: SIX1-Q177R homeodomain (human, UniProt Q15475 108-198, Q177R)
Sequence: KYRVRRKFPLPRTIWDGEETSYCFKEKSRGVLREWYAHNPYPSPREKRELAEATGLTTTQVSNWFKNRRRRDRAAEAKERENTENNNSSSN
Test: universal protein binding microarray; Universal all-10-mer PBM (8x60K, AMADID 030236), 300 nM GST-tagged protein, Alexa Fluor 488 anti-GST; buffer, salt, pH and temperature not stated (as in Berger); high values mean tight binding
Conditions: protein: ivt; tags: N-terminal GST; dsDNA, one strand shown
Over roughly 33,000 sequences, “e-score” has its median near -0.05; the highest 2% begin near 0.38. What follows is part of a selection rich in the highest values, with near analogues and random picks from the rest.
binding signal by entry:
Answer format: value, then unit.

{"columns": ["sequence-code", "binding signal"],
 "data": [
  ["AGTACACG", "0.426 E-score"],
  ["CGGGGGTC", "0.314 E-score"],
  ["GGGGTGCA", "0.273 E-score"],
  ["AGAGCACC", "0.202 E-score"],
  ["CACCCTAG", "0.347 E-score"]
]}

Ask: Quick one: binding signal for GTAACAGA ?
Reply: 0.16 E-score

Ask: Quick one: binding signal for CTGAGCAC ?
Reply: 0.254 E-score
